Molecular target: human GPR139 receptor (Homo sapiens, UniProt Q6DWJ6)
Construct: expressed in transfected cells; host or cells: T-REx-CHO (Thermo Fisher Scientific), doxycycline-induced
Sequence (Q6DWJ6 whole entry): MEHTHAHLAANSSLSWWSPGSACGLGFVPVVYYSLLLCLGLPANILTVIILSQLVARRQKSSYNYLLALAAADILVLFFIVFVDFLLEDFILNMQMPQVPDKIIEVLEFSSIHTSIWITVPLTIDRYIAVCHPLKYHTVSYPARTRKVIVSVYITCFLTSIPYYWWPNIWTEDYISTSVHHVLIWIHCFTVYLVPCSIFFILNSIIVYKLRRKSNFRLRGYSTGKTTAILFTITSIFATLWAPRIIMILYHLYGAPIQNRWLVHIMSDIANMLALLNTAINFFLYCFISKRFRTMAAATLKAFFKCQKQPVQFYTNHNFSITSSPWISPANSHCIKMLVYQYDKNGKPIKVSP
Test: GPR139 Competition Binding (membrane-based, tritium-labeled ligand)
Details: T-REx-CHO membranes with human GPR139; 6.5 nM tritium-labeled ligand; 11-point curve, 30 μM maximum concentration; read-out: GPR139 Binding Affinity (pKi) (converted)
Criterion: Ki strictly less than 100 nM. Met: MET. Not met: NOT MET.

// query Dear colleague, could you confirm whether Ki of COc1ccc([C@H](C)NC(=O)Cn2ncc3c(c(C)cn3C3CC3)c2=O)cc1 falls below 100 nM? Thanks.
// result MET

// query Does C[C@H](NC(=O)Cn1ncc2c(c(C3CC3)nn2C)c1=O)c1ccc(OC(F)(F)F)cc1 have Ki strictly under 100 nM?
// result MET

// query Is 100 nM strictly greater than the molecule's reported Ki? molecule: C[C@H](NC(=O)Cn1ncc2c(cnn2C)c1=O)c1ccc(C(F)(F)F)cc1
// result NOT MET

// query Ki under 100 nM? Item: CC(C)c1nn(CC(=O)N[C@@H](C)c2ccc(C(F)(F)F)cc2)c(=O)c2c1cnn2-c1ccccc1
// result MET

// query Given C[C@H](NC(=O)Cn1ncc2ccn(C)c2c1=O)c1ccc(Cl)cc1 , is recorded Ki strictly lower than 100 nM?
// result NOT MET

// query Say whether its Ki is strictly beneath 100 nM. Entry: Cc1cn(C2CC2)c2cnn(CC(=O)N[C@@H](C)c3ccc(C(F)(F)F)cc3)c(=O)c12
// result MET

// query Criterion: Ki strictly below 100 nM. Is it met by Cc1ccc([C@H](C)NC(=O)Cn2nc(C)c3c(c(C4CC4)nn3C)c2=O)cc1 ?
// result MET

// query Take the molecule Cc1ccc([C@H](C)NC(=O)Cn2nc(C)c3c(cnn3C)c2=O)c(F)c1 and say whether its Ki is less than 100 nM.
// result NOT MET

// query Please indicate whether the reported Ki of C[C@H](NC(=O)Cn1ncc2ccn(C)c2c1=O)c1ccc(C(F)(F)F)cc1 is strictly below 100 nM.
// result NOT MET

// query API: query returns whether the molecule falls strictly under 100 nM in Ki. Query: Cc1ccc([C@H](C)NC(=O)Cn2nc(C)c3c(c(C4CC4)nn3C)c2=O)c(F)c1
// result MET

// query Dear colleague, could you confirm whether Ki of Cc1ccc([C@H](C)NC(=O)Cn2ncc3c(c(C4CC4)nn3C)c2=O)cc1 falls below 100 nM? Thanks.
// result MET

// query Dear reviewer, please state whether C[C@H](NC(=O)Cn1ncc2ncn(C)c2c1=O)c1ccc(C(F)(F)F)cc1 has Ki strictly beneath 100 nM.
// result NOT MET

// query Please check: Ki for Cc1ccc([C@H](C)NC(=O)Cn2nc(C)c3c(C)nn(C(C)C)c3c2=O)cc1 , strictly under 100 nM or not?
// result MET

// query Identify whether the molecule Cc1ccc([C@H](C)NC(=O)Cn2nc(C3CC3)c3cnn(-c4ccccc4)c3c2=O)cc1 records Ki below 100 nM.
// result MET

// query Problem: For the molecule Cc1ccc([C@H](C)NC(=O)Cn2ncc3c(c(C)nn3C)c2=O)c(F)c1 , is Ki under 100 nM?
// result MET

// query A record lists CC(C)c1nn(CC(=O)N[C@@H](C)c2ccc(C(F)(F)F)cc2)c(=O)c2c1cnn2C(C)(C)C . Is its Ki below 100 nM?
// result MET

// query Is Ki of Cc1nn(C2CC2)c2cnn(CC(=O)N[C@@H](C)c3cc(F)cc(F)c3)c(=O)c12 strictly below 100 nM?
// result NOT MET

// query I'd appreciate it if you could check whether Cc1ccc([C@H](C)NC(=O)Cn2nc(C)c3cnn(C)c3c2=O)cc1 has Ki smaller than 100 nM.
// result NOT MET

// query Take the molecule Cc1ccc([C@H](C)NC(=O)Cn2ncc3c(c(C(C)C)nn3C)c2=O)c(F)c1 and say whether its Ki is less than 100 nM.
// result MET

// query Given the entry Cc1nn(C2CC2)c2cnn(CC(=O)N[C@H](C)c3ccc(C(F)(F)F)cc3)c(=O)c12 , would its reported Ki be below 100 nM?
// result NOT MET

// query Ki strictly < 100 nM for this molecule? Cc1ccc([C@H](C)NC(=O)Cn2nc(C)c3c(c(C)nn3C(C)C)c2=O)c(F)c1
// result MET

// query Here's an entry: Cc1cc(C)c([C@H](C)NC(=O)Cn2ncc3c(c(C)cn3C3CC3)c2=O)c(C)c1 . Is its Ki below 100 nM?
// result MET

// query Say whether its Ki is strictly beneath 100 nM. Entry: Cc1ccc([C@H](C)NC(=O)Cn2ncc3c(c(C)cn3C3CC3)c2=O)cc1
// result MET

// query Find out if reported Ki for Cc1ccc([C@H](C)NC(=O)Cn2nc(C3CC3)c3cnn(-c4ccccc4)c3c2=O)c(F)c1 is less than 100 nM
// result MET

// query Record Cc1ccc([C@H](C)NC(=O)Cn2nc(C(C)C)c3cnn(-c4ccccc4)c3c2=O)c(F)c1 : is its Ki strictly below 100 nM?
// result MET

// query Determine if C[C@H](NC(=O)Cn1ncc2c(C3CC3)nn(C)c2c1=O)c1c(F)cccc1Cl shows Ki strictly lower than 100 nM.
// result MET

// query Bench note: check whether Cc1ccc([C@H](C)NC(=O)Cn2ncc3c(C4CC4)nn(C)c3c2=O)c(F)c1 shows Ki below 100 nM
// result NOT MET

// query Lab log: compare recorded Ki with 100 nM; is it strictly lower for Cc1nn(C(C)C)c2cnn(CC(=O)N[C@@H](C)c3ccc(C(F)(F)F)cc3)c(=O)c12 ?
// result NOT MET

// query Determine if Cc1ccc([C@H](C)NC(=O)Cn2ncc3c(c(C)cn3C3CC3)c2=O)cc1F shows Ki strictly lower than 100 nM.
// result MET

// query API: query returns whether the molecule falls strictly under 100 nM in Ki. Query: Cc1ccc([C@H](C)NC(=O)Cn2ncc3c(C)nn(C4CC4)c3c2=O)cc1
// result MET

// query Given Cc1nn(CC(=O)N[C@@H](C)c2ccc(C(F)(F)F)cn2)c(=O)c2ncn(C)c12 , is recorded Ki strictly lower than 100 nM?
// result NOT MET

// query Please let me know if COc1ccc([C@H](C)NC(=O)Cn2ncc3c(c(C4CC4)nn3C)c2=O)cc1 shows Ki below 100 nM.
// result NOT MET

// query Is 100 nM strictly greater than the molecule's reported Ki? molecule: Cc1ccc([C@H](C)NC(=O)Cn2nc(C)c3cnn(C(C)(C)C)c3c2=O)c(F)c1
// result MET

----------
Molecular target: human GPR139 receptor (Homo sapiens)
Construct: expressed in transfected cells; host or cells: T-REx-CHO (Thermo Fisher Scientific), doxycycline-induced
Experiment: Measurement of GPR139 Activation Via Calcium Signaling (FLIPR, T-REx-CHO cells)
Assay type: cell-based
Settings: T-REx-CHO cells stably expressing human GPR139, 11-point dose response, 10 μM maximum concentration, read-out: GPR139 Potency (pEC50) (converted)
Please note: EC50 exactly at 0.07 µM is NOT MET. Only values below 0.07 µM get MET.

// query Regarding Cc1nn(CC(=O)N[C@@H](C)c2ccc(C(F)(F)F)cc2)c(=O)c2c1cnn2C(C)(C)C , kindly confirm whether its EC50 is beneath 0.07 µM.
// result NOT MET

// query I wonder whether COc1ccc([C@H](C)NC(=O)Cn2nc(C)c3c(c(C4CC4)nn3C)c2=O)cc1 has EC50 below 0.07 µM. Can you tell?
// result NOT MET

// query Quick check: does Cc1nn(CC(=O)N[C@@H](C)c2ccc(OC(F)(F)F)cc2)c(=O)c2cnn(C)c12 have EC50 under 0.07 µM?
// result MET

// query For this molecule, is EC50 lower than 0.07 µM? Cc1ccc([C@H](C)NC(=O)Cn2ncc3c(C)nn(C4CC4)c3c2=O)cc1
// result MET

// query Criterion: EC50 strictly below 0.07 µM. Is it met by Cc1ccc([C@H](C)NC(=O)Cn2ncc3c(c(C)nn3C3CC3)c2=O)cc1F ?
// result MET

// query Input Cc1nn(C2CC2)c2cnn(CC(=O)N[C@@H](C)c3ccc(F)cc3F)c(=O)c12 ; condition: EC50 strictly below 0.07 µM. Does it hold?
// result MET

// query A record lists Cc1ccc([C@H](C)NC(=O)Cn2nc(C(C)C)c3cnn(C(C)(C)C)c3c2=O)cc1 . Is its EC50 below 0.07 µM?
// result NOT MET

// query Given the entry Cc1ccc([C@H](C)NC(=O)Cn2nc(C)c3cnn(C)c3c2=O)c(F)c1 , would its reported EC50 be below 0.07 µM?
// result MET

// query Strictly below 0.07 µM in EC50? Cc1ccc([C@H](C)NC(=O)Cn2ncc3c(c(C)nn3C3CC3)c2=O)c(F)c1
// result MET

// query In plain terms, does Cc1ccc([C@H](C)NC(=O)Cn2nc(C)c3c(cnn3C(C)C)c2=O)cc1 come in under 0.07 µM for EC50?
// result NOT MET

// query API: query returns whether the molecule falls strictly under 0.07 µM in EC50. Query: Cc1nn(C)c2c(C)nn(CC(=O)N[C@@H](C)c3ccc(C(F)(F)F)cc3)c(=O)c12
// result NOT MET

// query Does the reported EC50 of Cc1nn(CC(=O)N[C@@H](C)c2ccc(F)cc2Cl)c(=O)c2c1c(C)nn2C1CC1 stay below 0.07 µM?
// result NOT MET

// query Take the molecule Cc1nn(C2CC2)c2c(=O)n(CC(=O)N[C@@H](C)c3ccc(C(F)(F)F)cn3)ncc12 and say whether its EC50 is less than 0.07 µM.
// result NOT MET

// query Lab note: confirm whether the reported EC50 for this molecule is below 0.07 µM, equality not counting. molecule: COc1ccc([C@H](C)NC(=O)Cn2ncc3c(c(C)nn3C3CC3)c2=O)cc1F
// result MET

// query I wonder whether Cc1ccc([C@H](C)NC(=O)Cn2nc(C)c3c(cnn3C)c2=O)c(F)c1 has EC50 below 0.07 µM. Can you tell?
// result MET

// query Just wondering, is EC50 of COc1ccc([C@H](C)NC(=O)Cn2ncc3c(c(C)cn3C3CC3)c2=O)cc1 below 0.07 µM?
// result MET

// query Given Cc1nn(C2CC2)c2cnn(CC(=O)N[C@@H](C)c3cccc(F)c3F)c(=O)c12 , is recorded EC50 strictly lower than 0.07 µM?
// result NOT MET

// query Does the reported EC50 of the following molecule sit strictly below 0.07 µM? Cc1nn(C2CC2)c2cnn(CC(=O)NC(C)c3ccc4c(c3)OCCO4)c(=O)c12 (stereo not drawn)
// result MET

// query Lab log: compare recorded EC50 with 0.07 µM; is it strictly lower for Cc1ccc([C@H](C)NC(=O)Cn2nc(C)c3c(C)nn(C)c3c2=O)cc1 ?
// result MET

// query Please indicate whether the reported EC50 of Cc1ccc([C@H](C)NC(=O)Cn2ncc3c(c(C4CC4)nn3C(C)C)c2=O)cc1 is strictly below 0.07 µM.
// result MET

// query EC50 under 0.07 µM? Item: Cc1ccc([C@H](C)NC(=O)Cn2nc(C3CC3)c3cnn(-c4ccccc4)c3c2=O)c(F)c1
// result NOT MET

// query Is 0.07 µM strictly greater than the molecule's reported EC50? molecule: Cc1ccc([C@H](C)NC(=O)Cn2nc(C(C)C)c3cnn(-c4ccccc4)c3c2=O)c(F)c1
// result NOT MET

// query I wonder whether COc1ccc([C@H](C)NC(=O)Cn2nc(C)c3cnn(C(C)(C)C)c3c2=O)cc1 has EC50 below 0.07 µM. Can you tell?
// result NOT MET

// query Identify whether the molecule Cc1nn(C(C)C)c2c(C)nn(CC(=O)N[C@@H](C)c3ccc(OC(F)(F)F)cc3)c(=O)c12 records EC50 below 0.07 µM.
// result NOT MET

// query I wonder whether Cc1nn(C2CC2)c2cnn(CC(=O)N[C@@H](C)c3c(F)cc(F)cc3F)c(=O)c12 has EC50 below 0.07 µM. Can you tell?
// result NOT MET

// query Is 0.07 µM strictly greater than the molecule's reported EC50? molecule: Cc1ccc([C@H](C)NC(=O)Cn2nc(C)c3c(c(C)nn3C(C)C)c2=O)c(F)c1
// result NOT MET

// query Field: below-cutoff. Rule: recorded EC50 strictly less than 0.07 µM. Subject: Cc1nn(C2CC2)c2cnn(CC(=O)N[C@@H](C)c3ccc(C(F)(F)F)cc3)c(=O)c12
// result MET

// query State whether 0.07 µM exceeds EC50 recorded for C[C@H](NC(=O)Cn1ncc2ccn(C)c2c1=O)c1ccc(Cl)cc1 .
// result MET

// query Field: below-cutoff. Rule: recorded EC50 strictly less than 0.07 µM. Subject: Cc1cc(C)c([C@H](C)NC(=O)Cn2nc(C)c3c(C)nn(C4CC4)c3c2=O)c(C)c1
// result NOT MET

// query Dear colleague, could you confirm whether EC50 of Cc1ccc([C@H](C)NC(=O)Cn2nc(C)c3c(c(C4CC4)nn3C)c2=O)c(F)c1 falls below 0.07 µM? Thanks.
// result MET

// query Is 0.07 µM strictly greater than the molecule's reported EC50? molecule: Cc1ccc([C@H](C)NC(=O)Cn2ncc3c(cnn3C)c2=O)cc1
// result MET

// query API: query returns whether the molecule falls strictly under 0.07 µM in EC50. Query: Cc1cn(C2CC2)c2cnn(CC(=O)N[C@@H](C)c3ccccc3)c(=O)c12
// result MET
